Please respond with reported EC50 (read off the curve) for every item in the list.
biological target: T1, Human serum albumin (HSA) (human, UniProt P02768 25-609); experiment: ELISA on coated human albumin, pH 7.4, HRP detection antibody, A450
T1 construct: also called human albumin; recombinant human albumin
T1 sequence (P02768 25-609): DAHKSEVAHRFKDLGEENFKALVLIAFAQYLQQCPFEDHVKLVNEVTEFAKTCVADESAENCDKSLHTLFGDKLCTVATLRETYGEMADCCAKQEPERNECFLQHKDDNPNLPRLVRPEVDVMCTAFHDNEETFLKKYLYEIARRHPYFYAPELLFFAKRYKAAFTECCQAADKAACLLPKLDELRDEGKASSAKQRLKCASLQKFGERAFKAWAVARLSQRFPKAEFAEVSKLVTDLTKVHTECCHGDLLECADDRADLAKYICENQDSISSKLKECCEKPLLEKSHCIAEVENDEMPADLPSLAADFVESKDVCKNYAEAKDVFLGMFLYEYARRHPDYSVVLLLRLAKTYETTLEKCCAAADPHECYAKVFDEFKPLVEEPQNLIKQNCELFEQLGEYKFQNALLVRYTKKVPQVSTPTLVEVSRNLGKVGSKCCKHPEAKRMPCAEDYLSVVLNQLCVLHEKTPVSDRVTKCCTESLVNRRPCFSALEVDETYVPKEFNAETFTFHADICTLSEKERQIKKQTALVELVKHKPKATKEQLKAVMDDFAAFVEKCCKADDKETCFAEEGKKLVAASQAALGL

Query string: // EC50 (read off the curve) lookup, key: cx12006 (bispecific antibody, anti-FcRn VHH linked to anti-albumin VHH) single polypeptide, format of FIG. 5(i): QVQLLESGGGKVQPGGSLRLSCAASGSIANVDLMAWHRQAPGKQREPIAVINDAGSTYYAESVKGRFTISRDNAKNTLYLQMNSLRAEDTAVYYCNTATWRGGERYADWGQGTLVTVEPGSGGGSQVQLLESGGGKVQPGGSLRLSCAASGFTFSTSGMVWVRQAPGKGLEWVSTISDDARITVYAESVKGRFTISRDNAKNTVYLQMNSLRAEDTAVYYCATYRAGSRIGSYEDYYRGQGTLVTVEPGG
Result string: ~400 pM

Query string: Data request, read-out EC50 (read off the curve), for cx12003 (bispecific antibody, anti-FcRn VHH linked to anti-albumin VHH) single polypeptide, format of FIG. 5(i): QVQLLESGGGEVQPGGSLRLSCAASGSIANVDLMAWHRQAPGKQREPIAVINDAGSTYYAESVKGRFTISRDNAKNTLYLQMNSLRAEDTAVYYCNTATWRGGERYADWGQGTLVTVEPGSGGGSQVQLLESGGGEVQPGGSLRLSCAASGFTFSTSGMVWVRQAPGKGLEWVSTISDDARITVYAESVKGRFTISRDNAKNTVYLQMNSLRAEDTAVYYCATYRAGSRIGSYEDYYRGQGTLVTVEPGG
Result string: ~400 pM

Query string: What measured EC50 (read off the curve) goes with cx12008 (bispecific antibody, anti-FcRn VHH linked to anti-albumin VHH) single polypeptide, format of FIG. 5(i): EVQLLESGGGEVQPGGSLRLSCAASGSIANVDLMAWHRQAPGKQREPIAVINDAGSTYYAESVKGRFTISRDNAKNTLYLQMNSLRAEDTAVYYCNTATWRGGERYADWGQGTLVTVRPGSGGGSEVQLVESGGGEVQPGGSLRLSCAASGFTFSTSGMVWVRQAPGKGLEWVSTISDDARITVYAESVKGRFTISRDNAKNTVYLQMNSLRAEDTAVYYCATYRAGSRIGSYEDYYRGQGTLVTVRPGG ?
Result string: ~400 pM

Query string: Look up EC50 (read off the curve) for this binder: cx12007 (B10a.v2.4 VHH x hz4A01v51.12 VHH) (bispecific antibody) EVQLLESGGGKVQPGGSLRLSCAASGSIANVDLMAWHRQAPGKQREPIAVINDAGSTYYAESVKGRFTISRDNAKNTLYLQMNSLRAEDTAVYYCNTATWRGGERYADWGQGTLVTVEPGSGGGSEVQLLESGGGKVQPGGSLRLSCAASGFTFSTSGMVWVRQAPGKGLEWVSTISDDARITVYAESVKGRFTISRDNAKNTVYLQMNSLRAEDTAVYYCATYRAGSRIGSYEDYYRGQGTLVTVEPGG
Result string: ~400 pM

Hey, just so you know, these numbers are from patent US20250353911A1.
